target_system: LRRK2 phospho-Ser935 (Homo sapiens, UniProt Q5S007)
Construct: expressed in transfected cells
Sequence (Q5S007 whole entry): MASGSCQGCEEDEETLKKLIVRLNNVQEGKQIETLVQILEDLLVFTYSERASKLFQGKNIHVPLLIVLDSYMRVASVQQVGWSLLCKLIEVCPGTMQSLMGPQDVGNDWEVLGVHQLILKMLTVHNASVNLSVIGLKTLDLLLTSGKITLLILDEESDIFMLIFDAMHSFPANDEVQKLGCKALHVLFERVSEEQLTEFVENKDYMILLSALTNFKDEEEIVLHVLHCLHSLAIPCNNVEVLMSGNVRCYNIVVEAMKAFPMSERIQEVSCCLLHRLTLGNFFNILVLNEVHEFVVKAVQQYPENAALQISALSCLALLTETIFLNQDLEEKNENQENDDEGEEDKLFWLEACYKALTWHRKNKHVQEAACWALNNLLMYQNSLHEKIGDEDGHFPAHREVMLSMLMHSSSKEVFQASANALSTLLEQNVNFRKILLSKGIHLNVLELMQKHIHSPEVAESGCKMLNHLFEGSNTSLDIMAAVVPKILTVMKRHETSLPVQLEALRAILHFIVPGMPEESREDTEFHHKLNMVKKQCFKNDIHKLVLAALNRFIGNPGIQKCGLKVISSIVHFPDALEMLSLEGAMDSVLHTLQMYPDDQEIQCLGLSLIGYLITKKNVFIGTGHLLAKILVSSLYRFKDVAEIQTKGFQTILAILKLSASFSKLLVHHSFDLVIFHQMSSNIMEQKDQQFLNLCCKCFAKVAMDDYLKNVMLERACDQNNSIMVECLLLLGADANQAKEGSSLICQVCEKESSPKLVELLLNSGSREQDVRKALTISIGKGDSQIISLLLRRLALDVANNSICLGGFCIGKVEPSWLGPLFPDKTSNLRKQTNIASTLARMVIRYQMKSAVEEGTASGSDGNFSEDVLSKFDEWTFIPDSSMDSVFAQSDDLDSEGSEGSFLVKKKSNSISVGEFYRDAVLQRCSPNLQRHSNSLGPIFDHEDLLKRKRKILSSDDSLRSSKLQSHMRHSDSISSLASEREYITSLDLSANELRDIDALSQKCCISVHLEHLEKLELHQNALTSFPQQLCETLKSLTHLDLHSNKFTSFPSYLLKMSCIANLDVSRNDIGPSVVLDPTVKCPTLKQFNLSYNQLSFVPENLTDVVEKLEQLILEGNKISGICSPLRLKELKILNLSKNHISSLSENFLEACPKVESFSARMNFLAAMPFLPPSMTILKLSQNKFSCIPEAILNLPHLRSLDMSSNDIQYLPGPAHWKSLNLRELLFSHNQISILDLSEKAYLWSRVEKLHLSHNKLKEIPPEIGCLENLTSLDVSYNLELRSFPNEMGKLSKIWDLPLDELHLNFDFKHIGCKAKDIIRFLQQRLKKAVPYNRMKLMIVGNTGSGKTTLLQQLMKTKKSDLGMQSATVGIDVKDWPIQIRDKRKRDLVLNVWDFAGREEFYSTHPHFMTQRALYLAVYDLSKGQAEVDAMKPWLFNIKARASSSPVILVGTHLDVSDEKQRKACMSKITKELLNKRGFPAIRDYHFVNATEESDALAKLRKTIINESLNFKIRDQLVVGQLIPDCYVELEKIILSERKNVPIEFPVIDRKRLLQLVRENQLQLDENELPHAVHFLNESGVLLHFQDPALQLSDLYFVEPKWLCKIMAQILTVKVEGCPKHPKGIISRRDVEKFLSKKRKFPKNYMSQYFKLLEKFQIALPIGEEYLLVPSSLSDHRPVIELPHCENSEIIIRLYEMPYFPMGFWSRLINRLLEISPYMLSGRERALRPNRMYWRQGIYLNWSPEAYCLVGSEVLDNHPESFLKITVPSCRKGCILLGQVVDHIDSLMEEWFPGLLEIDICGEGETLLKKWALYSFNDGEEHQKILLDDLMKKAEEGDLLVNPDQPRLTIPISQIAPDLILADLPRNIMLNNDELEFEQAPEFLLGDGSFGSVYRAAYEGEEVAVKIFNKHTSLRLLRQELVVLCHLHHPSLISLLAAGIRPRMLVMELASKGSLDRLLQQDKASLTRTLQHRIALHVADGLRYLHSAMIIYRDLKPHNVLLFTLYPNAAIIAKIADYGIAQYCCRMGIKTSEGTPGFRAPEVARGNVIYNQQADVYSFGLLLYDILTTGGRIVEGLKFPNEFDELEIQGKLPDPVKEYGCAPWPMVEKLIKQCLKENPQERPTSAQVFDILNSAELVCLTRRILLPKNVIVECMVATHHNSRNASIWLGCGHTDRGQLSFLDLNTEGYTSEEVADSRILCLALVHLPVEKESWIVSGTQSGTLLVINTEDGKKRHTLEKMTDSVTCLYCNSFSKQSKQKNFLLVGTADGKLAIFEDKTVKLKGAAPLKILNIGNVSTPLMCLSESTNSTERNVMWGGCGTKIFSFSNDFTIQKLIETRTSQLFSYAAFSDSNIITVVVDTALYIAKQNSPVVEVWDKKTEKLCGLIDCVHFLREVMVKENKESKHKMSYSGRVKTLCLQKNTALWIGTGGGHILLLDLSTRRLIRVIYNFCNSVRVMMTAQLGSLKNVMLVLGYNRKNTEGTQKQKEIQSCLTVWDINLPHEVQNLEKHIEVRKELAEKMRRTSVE
procedure_details: Cellular LRRK2 phosphoserine 935 dephosphorylation spotblot assay in SH-SY5Y cells stably expressing 3xFlag-LRRK2
Assay type: cell-based
assay_conditions: pS935 level as % of control, 5 μM for 2 h, SH-SY5Y cells with stable expression of LRRK2
endpoint_label: Cellular pS935 (% @ 5 μM) (%)

[[record]]
compound = "Nc1nc(Nc2ccc(S(N)(=O)=O)cc2)nn1C(=S)Nc1c(F)cccc1F [Cdk1/2 inhibitor III]"
endpoint_label = "Cellular pS935 (% @ 5 μM)"
units_of_measure = "%"
test_value = 13.15

[[record]]
compound = "COc1cc2ncnc(N3CCN(C(=O)Nc4ccc(Oc5ccccc5)cc4)CC3)c2cc1OC"
endpoint_label = "Cellular pS935 (% @ 5 μM)"
units_of_measure = "%"
test_value = 72.83

[[record]]
compound = "COc1cc2ncnc(Nc3ccc(OCc4ccccc4)cc3)c2cc1OC [EGFR/ErbB-2 inhibitor]"
endpoint_label = "Cellular pS935 (% @ 5 μM)"
units_of_measure = "%"
test_value = 67.43

